IC50 listing for selected compounds.
Biological target: recombinant Pseudomonas aeruginosa LpxC (Pseudomonas aeruginosa, UniProt P47205)
Test: Inhibition of enzymatic activity of recombinant Pseudomonas aeruginosa LpxC in vitro
Settings: 5 nM LpxC; substrate UDP-3-O—(R-3-hydroxydecanoyl)-GlcNAc; 25 °C, 120 minutes; fluorescamine readout
Please respond with the number in µM and leave the unit unwritten.

# annotated cases, reported IC50 shown
• C[C@H](O)c1nccn1Cc1cc(-c2ccc(C#CC3=CCN(Cc4ccc(C(=O)O)cc4)CC3)cc2)on1 [Example 34] = 0.0267
• C[C@H](O)c1nccn1Cc1cc(-c2ccc(C#CC3=CCN(C(N)=O)CC3)cc2)on1 [Example 58] = 0.0192
• C[C@H](O)c1nccn1Cc1cc(-c2ccc(C#CC3=CCN(C(=O)c4ccncc4)CC3)cc2)on1 [Example 33] = 0.0197
• C[C@H](O)c1nccn1Cc1cc(-c2ccc(C#CC3=CCN(CCn4cncn4)CC3)cc2)on1 [Example 43] = 0.0258
• C[C@H](O)c1nccn1Cc1cc(-c2ccc(C#CC3CC4(CCN(C(=O)CC(N)=O)CC4)C3)cc2)on1 [Example 15] = 0.00442
• COCCC(=O)N1CC=C(C#Cc2ccc(-c3cc(Cn4ccnc4[C@H](C)O)no3)cc2)CC1 [Example 67] = 0.0229

// next item, IC50 requested
## Task Fill in reported IC50 for this entry: C[C@H](O)c1nccn1Cc1cc(-c2ccc(C#CC3=CCN(C(=O)C4COCCO4)CC3)cc2)on1 (stereo partly shown) [Example 64]
## Result 0.0191

* * *

IC50 listing for selected compounds.
Molecular target: recombinant Pseudomonas aeruginosa LpxC (Pseudomonas aeruginosa, UniProt P47205)
Test: Inhibition of enzymatic activity of recombinant Pseudomonas aeruginosa LpxC in vitro
Details: 5 nM LpxC; substrate UDP-3-O—(R-3-hydroxydecanoyl)-GlcNAc; 25 °C, 120 minutes; fluorescamine readout
Please respond with the number in nM and leave the unit unwritten.

- C[C@H](O)c1nccn1Cc1cc(-c2ccc(C#CC3=CCN(C(=O)c4ccnnc4)CC3)cc2)on1 [Example 39]: 21.7

## Task Fill in reported IC50 for this entry: C[C@H](O)c1nccn1Cc1cc(-c2ccc(C#CC3CC4(C3)CN(C(=O)CO)C4)cc2)on1 [Example 26]
## Result 11.3

## Task Fill in reported IC50 for this entry: C[C@H](O)c1nccn1Cc1cc(-c2ccc(C#CC3CC4(CCN(CCCC(N)=O)CC4)C3)cc2)on1 [Example 8]
## Result 19.3

## Task Fill in reported IC50 for this entry: CC(=O)N1CC=C(C#Cc2ccc(-c3cc(Cn4ccnc4[C@H](C)O)no3)cc2)CC1 [Example 62]
## Result 18

## Task Fill in reported IC50 for this entry: C[C@H](O)c1nccn1Cc1cc(-c2ccc(C#CC3=CCN(C(=O)CO)CC3)cc2)on1 [Example 63]
## Result 23.6

## Task Fill in reported IC50 for this entry: C[C@H](O)c1nccn1Cc1cc(-c2ccc(C#CC3CC4(C3)CN(Cc3ncc[nH]3)C4)cc2)on1 [Example 46]
## Result 21.5

## Task Fill in reported IC50 for this entry: C[C@H](O)c1nccn1Cc1cc(-c2ccc(C#CC3=CCN(CCC#N)CC3)cc2)on1 [Example 44]
## Result 24.9

## Task Fill in reported IC50 for this entry: C[C@H](O)c1nccn1Cc1cc(-c2ccc(C#CC3=CCN(C(=O)c4cccnc4)CC3)cc2)on1 [Example 45]
## Result 12.3

## Task Fill in reported IC50 for this entry: C[C@H](O)c1nccn1Cc1cc(-c2ccc(C#CC3CC4(CCN(C(=O)CO)CC4)C3)cc2)on1 [Example 12]
## Result 4.06

## Task Fill in reported IC50 for this entry: C[C@H](O)c1nccn1Cc1cc(-c2ccc(C#CC3=CCN(C(=O)C4CCCCO4)CC3)cc2)on1 (stereo partly shown) [Example 65]
## Result 15.1

* * *

As a worked illustration, we turn to MIC data collected for E. coli ATCC 25922.
Please respond with the number in µg/mL and leave the unit unwritten.

* C[C@H](O)c1nccn1Cc1cc(-c2ccc(C#CC3=CCN(C(=O)c4cnccn4)CC3)cc2)on1 | 0.25
* C[C@H](O)c1nccn1Cc1cc(-c2ccc(C#CC3=CCN(C(=O)CO)CC3)cc2)on1 | 0.5
* CC(=O)N1CC=C(C#Cc2ccc(-c3cc(Cn4ccnc4[C@H](C)O)no3)cc2)CC1 | 0.5
* C[C@H](O)c1nccn1Cc1cc(-c2ccc(C#CC3CC4(CCN(Cc5ncc[nH]5)CC4)C3)cc2)on1 | 2
* COCC(=O)N1CC=C(C#Cc2ccc(-c3cc(Cn4ccnc4[C@H](C)O)no3)cc2)CC1 | 1

## Task Fill in reported MIC for this entry: C[C@H](O)c1nccn1Cc1cc(-c2ccc(C#CC3CC4(CCN(Cc5ccn[nH]5)CC4)C3)cc2)on1
## Result 2

## Task Fill in reported MIC for this entry: C[C@H](O)c1nccn1Cc1cc(-c2ccc(C#CC3CC4(C3)CN(C(=O)CO)C4)cc2)on1
## Result 2

## Task Fill in reported MIC for this entry: C[C@H](O)c1nccn1Cc1cc(-c2ccc(C#CC3CC4(CCN(C=O)CC4)C3)cc2)on1
## Result 1

* * *

IC50 listing for selected molecules.
Target: recombinant Pseudomonas aeruginosa LpxC (Pseudomonas aeruginosa)
Sequence (P47205 1-303): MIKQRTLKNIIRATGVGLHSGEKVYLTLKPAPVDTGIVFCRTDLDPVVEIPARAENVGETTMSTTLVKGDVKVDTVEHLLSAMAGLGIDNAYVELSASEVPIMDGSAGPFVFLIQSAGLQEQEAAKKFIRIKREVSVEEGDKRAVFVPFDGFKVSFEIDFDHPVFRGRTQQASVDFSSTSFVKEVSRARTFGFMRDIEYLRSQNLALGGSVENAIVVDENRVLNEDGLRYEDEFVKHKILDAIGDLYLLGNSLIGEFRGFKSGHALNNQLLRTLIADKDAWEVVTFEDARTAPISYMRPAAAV
Assay: Inhibition of enzymatic activity of recombinant Pseudomonas aeruginosa LpxC in vitro
Details: 5 nM LpxC; substrate UDP-3-O—(R-3-hydroxydecanoyl)-GlcNAc; 25 °C, 120 minutes; fluorescamine readout
Please respond with the number in µM and leave the unit unwritten.

# annotated cases, reported IC50 shown
• C[C@H](O)c1nccn1Cc1cc(-c2ccc(C#CC3CC4(CCN(CCC(=O)O)CC4)C3)cc2)on1 [Example 5] = 0.00703
• C[C@H](O)c1nccn1Cc1cc(-c2ccc(C#CC3CC4(C3)CN(Cc3ncco3)C4)cc2)on1 [Example 52] = 0.0139

// next item, IC50 requested
## Task Specify IC50 for C[C@H](O)c1nccn1Cc1cc(-c2ccc(C#CC3CC4(C3)CN(C(=O)N3CCC(O)CC3)C4)cc2)on1 [Example 51] , system recombinant Pseudomonas aeruginosa LpxC (Pseudomonas aeruginosa).
## Result 0.0151

* * *

Target: recombinant Pseudomonas aeruginosa LpxC (Pseudomonas aeruginosa)
Sequence (P47205 1-303): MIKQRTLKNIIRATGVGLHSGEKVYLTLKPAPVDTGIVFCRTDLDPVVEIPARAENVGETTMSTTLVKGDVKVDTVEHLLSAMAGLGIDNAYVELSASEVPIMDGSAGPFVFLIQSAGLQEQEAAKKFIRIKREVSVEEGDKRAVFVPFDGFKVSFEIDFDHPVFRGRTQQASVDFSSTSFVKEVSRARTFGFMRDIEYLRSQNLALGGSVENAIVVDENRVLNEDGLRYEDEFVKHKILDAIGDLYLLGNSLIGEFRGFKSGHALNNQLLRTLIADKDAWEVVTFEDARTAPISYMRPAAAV
Assay: Inhibition of enzymatic activity of recombinant Pseudomonas aeruginosa LpxC in vitro
Conditions: 5 nM LpxC; substrate UDP-3-O—(R-3-hydroxydecanoyl)-GlcNAc; 25 °C, 120 minutes; fluorescamine readout
quantity: pIC50
Keep in mind that pIC50 stands for -log10 of concentration in molar terms.

# annotated cases, reported pIC50 shown
* C[C@H](O)c1nccn1Cc1cc(-c2ccc(C#CC3=CCN(C(=O)c4cnccn4)CC3)cc2)on1 [Example 38] | 7.64
* C[C@H](O)c1nccn1Cc1cc(-c2ccc(C#CC3CC4(CCN(Cc5ncc[nH]5)CC4)C3)cc2)on1 [Example 27] | 8.22
* C[C@H](O)c1nccn1Cc1cc(-c2ccc(C#CC3=CCN(CC(N)=O)CC3)cc2)on1 [Example 59] | 7.62
* C[C@H](O)c1nccn1Cc1cc(-c2ccc(C#CC3CC4(CCN(CCCC(=O)O)C4)C3)cc2)on1 (stereo partly drawn) [Example 4] | 7.63
* C[C@H](O)c1nccn1Cc1cc(-c2ccc(C#CC3CC4(CCN(C(=O)CC(=O)O)CC4)C3)cc2)on1 [Example 14] | 8.17

## Task Specify pIC50 for C[C@H](O)c1nccn1Cc1cc(-c2ccc(C#CC3CC4(CCN(C=O)C4)C3)cc2)on1 (stereo partly drawn) [Example 23] , system recombinant Pseudomonas aeruginosa LpxC (Pseudomonas aeruginosa).
## Result 8.20

## Task Specify pIC50 for C[C@H](O)c1nccn1Cc1cc(-c2ccc(C#CC3CC4(CCN(C=O)CC4)C3)cc2)on1 [Example 17] , system recombinant Pseudomonas aeruginosa LpxC (Pseudomonas aeruginosa).
## Result 8.08

## Task Specify pIC50 for C[C@H](O)c1nccn1Cc1cc(-c2ccc(C#CC3CC4(CCN(C(N)=O)C4)C3)cc2)on1 (stereo partly drawn) [Example 24] , system recombinant Pseudomonas aeruginosa LpxC (Pseudomonas aeruginosa).
## Result 8.16

## Task Specify pIC50 for C[C@H](O)c1nccn1Cc1cc(-c2ccc(C#CC3CC4(C3)CN(C(=O)NCCO)C4)cc2)on1 [Example 50] , system recombinant Pseudomonas aeruginosa LpxC (Pseudomonas aeruginosa).
## Result 7.63

## Task Specify pIC50 for CNC(=O)N1CC2(CC(C#Cc3ccc(-c4cc(Cn5ccnc5[C@H](C)O)no4)cc3)C2)C1 [Example 47] , system recombinant Pseudomonas aeruginosa LpxC (Pseudomonas aeruginosa).
## Result 7.88

## Task Specify pIC50 for C[C@H](O)c1nccn1Cc1cc(-c2ccc(C#CC3CC4(C3)CN(C3CC(C#N)C3)C4)cc2)on1 (stereo partly drawn) [Example 49] , system recombinant Pseudomonas aeruginosa LpxC (Pseudomonas aeruginosa).
## Result 7.65

## Task Specify pIC50 for C[C@H](O)c1nccn1Cc1cc(-c2ccc(C#CC3CC4(CCN(C(=O)CN)CC4)C3)cc2)on1 [Example 16] , system recombinant Pseudomonas aeruginosa LpxC (Pseudomonas aeruginosa).
## Result 7.99

## Task Specify pIC50 for C[C@H](O)c1nccn1Cc1cc(-c2ccc(C#CC3CC4(CCN(C5CNC5)CC4)C3)cc2)on1 [Example 30] , system recombinant Pseudomonas aeruginosa LpxC (Pseudomonas aeruginosa).
## Result 7.79

## Task Specify pIC50 for C[C@H](O)c1nccn1Cc1cc(-c2ccc(C#CC3CC4(C3)CN(CC(N)=O)C4)cc2)on1 [Example 20] , system recombinant Pseudomonas aeruginosa LpxC (Pseudomonas aeruginosa).
## Result 8.17

## Task Specify pIC50 for C[C@H](O)c1nccn1Cc1cc(-c2ccc(C#CC3CC4(CCN(CCO)CC4)C3)cc2)on1 [Example 11] , system recombinant Pseudomonas aeruginosa LpxC (Pseudomonas aeruginosa).
## Result 8.06

## Task Specify pIC50 for C[C@H](O)c1nccn1Cc1cc(-c2ccc(C#CC3CC4(CCN(C(=O)CC#N)CC4)C3)cc2)on1 [Example 29] , system recombinant Pseudomonas aeruginosa LpxC (Pseudomonas aeruginosa).
## Result 8.21

## Task Specify pIC50 for C[C@H](O)c1nccn1Cc1cc(-c2ccc(C#CC3CC4(C3)CN(C(=O)CC#N)C4)cc2)on1 [Example 32] , system recombinant Pseudomonas aeruginosa LpxC (Pseudomonas aeruginosa).
## Result 7.65

## Task Specify pIC50 for C[C@H](O)c1nccn1Cc1cc(-c2ccc(C#CC3CC4(CCN(CC(N)=O)CC4)C3)cc2)on1 [Example 13] , system recombinant Pseudomonas aeruginosa LpxC (Pseudomonas aeruginosa).
## Result 8.30
